Values from patent US20230257372A1

EXPERIMENTAL TARGET: human recombinant HDAC6 (Homo sapiens, UniProt Q9UBN7)
Construct: purchased Calbiochem Inc. 382180
Sequence (Q9UBN7 1-1215): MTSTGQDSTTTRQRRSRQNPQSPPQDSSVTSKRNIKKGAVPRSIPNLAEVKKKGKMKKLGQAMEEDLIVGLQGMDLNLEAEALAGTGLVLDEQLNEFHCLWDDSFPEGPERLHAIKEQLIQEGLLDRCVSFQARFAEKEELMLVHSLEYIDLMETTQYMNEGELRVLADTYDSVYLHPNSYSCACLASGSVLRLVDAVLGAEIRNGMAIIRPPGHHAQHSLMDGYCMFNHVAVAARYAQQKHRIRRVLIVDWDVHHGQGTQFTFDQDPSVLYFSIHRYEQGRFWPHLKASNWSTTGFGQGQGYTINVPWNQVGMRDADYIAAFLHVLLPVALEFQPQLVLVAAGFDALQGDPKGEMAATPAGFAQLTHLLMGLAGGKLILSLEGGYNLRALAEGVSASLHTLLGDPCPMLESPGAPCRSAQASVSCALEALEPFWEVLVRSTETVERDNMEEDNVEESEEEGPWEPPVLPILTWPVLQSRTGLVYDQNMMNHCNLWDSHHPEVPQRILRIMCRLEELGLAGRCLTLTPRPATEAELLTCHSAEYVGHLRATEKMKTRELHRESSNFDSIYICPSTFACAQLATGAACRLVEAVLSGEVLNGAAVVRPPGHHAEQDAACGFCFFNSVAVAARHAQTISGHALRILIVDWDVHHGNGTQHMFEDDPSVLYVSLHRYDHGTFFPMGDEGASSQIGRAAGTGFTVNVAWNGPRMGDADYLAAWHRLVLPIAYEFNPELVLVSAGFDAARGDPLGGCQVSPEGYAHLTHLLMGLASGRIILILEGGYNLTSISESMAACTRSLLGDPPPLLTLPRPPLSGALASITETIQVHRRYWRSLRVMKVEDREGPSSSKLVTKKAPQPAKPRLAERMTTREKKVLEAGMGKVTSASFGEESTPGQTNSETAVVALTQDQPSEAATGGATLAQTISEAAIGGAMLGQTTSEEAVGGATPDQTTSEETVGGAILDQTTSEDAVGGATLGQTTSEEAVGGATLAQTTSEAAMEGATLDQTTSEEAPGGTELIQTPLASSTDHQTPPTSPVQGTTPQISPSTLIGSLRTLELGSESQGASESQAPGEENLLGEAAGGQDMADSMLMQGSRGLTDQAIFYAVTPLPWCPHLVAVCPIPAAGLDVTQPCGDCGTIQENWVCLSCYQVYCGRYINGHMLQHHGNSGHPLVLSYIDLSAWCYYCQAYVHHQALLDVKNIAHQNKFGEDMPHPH
ASSAY COMMENT: HDAC6 enzyme activity inhibition (HDAC Fluorimetric Drug Discovery Kit)
Format: biochemical
RUN PARAMETERS: HDAC6 over HDAC1
QUANTITY NAME: HDAC6 selectivity (fold)
Just the number in fold, nothing appended.

Examples with their reported HDAC6 selectivity (fold) follow.
Fc1cc(-c2nnc(C(F)F)o2)ccc1Cn1cc(-c2ccc(N3CCN(C4CCOCC4)CC3)c(F)c2)nn1 502
CN1Cc2cccc(-c3cn(Cc4ccc(-c5nnc(C(F)F)o5)cn4)nn3)c2C1 1046
Fc1c(-c2cn(Cc3ccc(-c4nnc(C(F)F)o4)cn3)nn2)cccc1N1CCN(C2CCC2)CC1 2564

// below: HDAC6 selectivity (fold) requested for another molecule
*Q* Quick check: HDAC6 selectivity (fold) of Fc1cc(-c2nnc(C(F)F)o2)ccc1Cn1cc(-c2ccc(CN3CC[C@@H](F)C3)cn2)nn1 ?
*A* 775
